These entries and their values trace back to PubChem BioAssay (Tox21).

# experiment_summary: Caspase-3/7 induction in HepG2 cells by small molecules, qHTS assay (AID 1346978); further: nearly all actives have a fitted effect of over 15% in size
# run_parameters: HepG2 caspase-3/7 activation, Caspase-Glo luminescence, 17 h; series mostly up to 92.4 µM
Records with an inconclusive call do not appear. Active and inactive are the calls of the source. The call rests on the fitted dose curve; in most records, active means well fitted activation curve with a large enough effect in the repeat runs; inconclusive means weak or mixed curves; inactive means flat fitted curve, though single readings scatter.
metric_name: caspase activation

Some solved cases for reference:
compound=O=C(/C=C/c1ccc(O)c(O)c1)O[C@@H]1C[C@](O)(C(=O)O)C[C@@H](O)[C@H]1O data_value=inactive
compound="CC(C)CCCC(C)CCO (stereo not drawn)" data_value=inactive
compound=C=C(C)C(=O)OCCOc1ccccc1 data_value=inactive
compound=Cc1cc(NC(=O)C(=O)O)cc(C)c1Oc1ccc(O)c2c1CCC2 data_value=inactive
compound=CCOc1cc(OCC)c(C(=O)CCC(=O)O)cc1OCC data_value=inactive
compound="NC1CCN(c2nc3c(cc2F)c(=O)c(C(=O)O)cn3-c2ccc(F)cc2F)C1 (stereo not drawn)" data_value=inactive
compound="CC1=CCC(C(C)C)C=C1 (stereo not drawn)" data_value=inactive
compound=O=CNc1ccccc1 data_value=inactive
compound=O=C(NS(=O)(=O)/C=C/c1cccs1)c1ccc(F)cc1Br data_value=inactive
compound=CCCCCOC(=O)c1ccc(O)cc1 data_value=inactive

Measured caspase activation, "Nc1nc(CC(=O)O)cs1" : inactive

Measured caspase activation, "Nc1ccc(C(=O)N2CC3CC(CN(Cc4ccccc4)C3)C2)cc1" : inactive

Measured caspase activation, "CC[C@H](C)[C@@H](C(=O)O)n1sc2ccccc2c1=O" : inactive

---

# experiment_summary: qHTS assay for identifying genotoxic compounds that show differential cytotoxicity against isogenic chicken DT40 cell lines with known DNA damage response pathways - Rev3 mutant cell line (AID 743014); further: nearly all actives have a fitted effect of over 55% in size
# run_parameters: chicken DT40 Rev3-/- viability, CellTiter-Glo, 40 h; series mostly up to 68.4 µM
Results filed as inconclusive are left out. Active and inactive are the calls of the source. Calls follow the shape of the dose curve; as a rule, active = well fitted cell-killing curve with a large enough effect in the repeat runs; inconclusive = weak or mixed curves, or effect the other way; inactive = no such curve, though single readings can be large or run the other way.
Result category, one only: active, inactive

Reference set (9 entries):
compound=O=c1c2ccccc2nnn1CCl label_value=inactive
compound="CC(=O)/C=C/C1C(C)=CCCC1(C)C (stereo not given)" label_value=inactive
compound=O=C1CCCCCO1 label_value=inactive
compound="CC(C)NCC(O)COc1ccc(CC(N)=O)cc1 (stereo not given)" label_value=inactive
compound=c1ccc(OCc2ccc(CCCN3CCOCC3)cc2)cc1 label_value=active
compound=CCOC(=O)[C@H](CCc1ccccc1)N[C@H]1CCc2ccccc2N(CC(=O)O)C1=O label_value=active
compound=CCCCCCCCN(C)C label_value=inactive
compound=CC(=O)[C@@]1(O)CC[C@H]2[C@@H]3C[C@H](C)C4=CC(=O)CC[C@]4(C)[C@H]3CC[C@@]21C label_value=active
compound=CC(C)c1ccccc1C(C)C label_value=inactive

Request: Which outcome was entered for the compound "CCOc1ccc2[nH]cc(C(=O)NCc3ccccc3)c(=O)c2n1" in this test?
Result: active

---

# experiment_summary: qHTS assay to identify small molecule antagonists of the estrogen related receptor (ERR) signaling pathway from Tox21 library - cell viability counter screen (AID 1224834); further: nearly all actives have a fitted effect of over 30% in size
# run_parameters: ERR reporter cells viability, CellTiter-Fluor, 17.5 h; series mostly up to 92.4 µM
Records with an inconclusive call do not appear. Activity calls are given as the source filed them. Calls come from the whole dose curve; as a rule, active = well fitted cell-killing curve with a large enough effect in the repeat runs; inconclusive = weak or mixed curves; inactive = flat fitted curve, though single readings scatter.
Result category, one only: active, inactive

Reference set (5 entries):
compound=C=C(C)C(=O)OCCN(C)C label_value=inactive
compound="CC1=CCC(C(C)C)C=C1 (centres undefined)" label_value=inactive
compound=CC[C@]12CCCN3CCc4c(n(c5ccccc45)C(=O)C1)[C@@H]32 label_value=active
compound=CC(C)c1ccccc1C(C)C label_value=inactive
compound=NCc1ccccc1 label_value=inactive

Consider now this further compound.
Request: Which outcome was entered for the compound "N=C(N=C(N)N)N1CCOCC1" in this test?
Result: inactive
